target: Recombinant human HSD17B13 enzyme (Homo sapiens (Human), UniProt Q7Z5P4); assay: HSD17b13 NAD(P)H-Glo Biochemical Assay; details: 50 uM estradiol, 1 mM NAD+; read-out: HSD17β13 IC50
Sequence (Q7Z5P4 20-300): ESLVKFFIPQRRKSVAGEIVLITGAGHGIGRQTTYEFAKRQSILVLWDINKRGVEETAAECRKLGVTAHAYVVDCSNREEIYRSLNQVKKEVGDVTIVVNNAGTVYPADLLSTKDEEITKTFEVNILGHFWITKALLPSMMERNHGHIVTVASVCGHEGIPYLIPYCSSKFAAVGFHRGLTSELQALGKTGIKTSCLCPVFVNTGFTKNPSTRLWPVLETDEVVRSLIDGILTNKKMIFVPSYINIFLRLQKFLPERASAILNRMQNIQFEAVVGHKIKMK
Entries and their IC50 values follow.

Take a look at these entries with their results.
CS(=O)(=O)Nc1ccccc1-c1ccc2c(cnn2-c2ccc(F)c(O)c2)c1 ... 1000 to 30000 nM
CS(=O)(=O)N1CCN(c2cc3cnn(-c4cc(O)c(F)c(F)c4)c3cc2C#N)CC1 ... 100 to 1000 nM
Cc1cc(-n2cc3cc(N4CCN(S(C)(=O)=O)CC4)ncc3n2)cc(O)c1F ... 1000 to 30000 nM
COc1ccc(-c2ccc3c(cnn3-c3ccc(F)c(O)c3)c2)c(Cl)c1 ... 100 to 1000 nM
O=S(=O)(c1ccccc1)N1CCN(c2cc3cnn(-c4cc(O)c(F)c(F)c4)c3cc2Cl)CC1 ... 100 to 1000 nM
Cc1nn(-c2cc(O)c(F)c(C(F)(F)F)c2)c2cnc(N3CCOCC34CC4)cc12 ... < 100 nM

// query Specify the recorded IC50 for `CS(=O)(=O)N1CCN(c2cc3cn(-c4cc(O)c(F)cn4)nc3cn2)CC1` , system: Recombinant human HSD17B13 enzyme (Homo sapiens (Human), UniProt Q7Z5P4).
// result 1000 to 30000 nM

// query Specify the recorded IC50 for `CS(=O)(=O)N1CCN(c2ncc3c(cnn3-c3cc(O)c(F)c(C(F)(F)F)c3)n2)CC1` , system: Recombinant human HSD17B13 enzyme (Homo sapiens (Human), UniProt Q7Z5P4).
// result 100 to 1000 nM

// query Specify the recorded IC50 for `CS(=O)(=O)N1CCN(c2cc3cnn(-c4cc(O)c(F)c(F)c4)c3cc2C(F)(F)F)CC1` , system: Recombinant human HSD17B13 enzyme (Homo sapiens (Human), UniProt Q7Z5P4).
// result 1000 to 30000 nM

====

target: Recombinant human HSD17B13 enzyme (Homo sapiens (Human), UniProt Q7Z5P4); experiment: HSD17b13 NAD(P)H-Glo Biochemical Assay; conditions: 50 uM estradiol, 1 mM NAD+; read-out: HSD17β13 IC50
pIC50: −log10 of the molar value.
Quantity: pIC50

Oc1cc(-n2ncc3cc(-c4ccc(O)c(Cl)c4)ccc32)c(F)cc1F ... 6.00 to 7.00

// query Look up and state reported pIC50 for `Cc1nn(-c2cc(C(F)(F)F)c(F)c(O)c2F)c2ccc(N(C)C3CCOCC3)cc12`
// result > 7.00

// query Look up and state reported pIC50 for `O=C(O)Cc1ccc(-c2ccc3c(cnn3-c3ccc(F)c(O)c3)c2)cc1`
// result 4.52 to 6.00

// query Look up and state reported pIC50 for `CC1(C)CN(S(C)(=O)=O)CCN1c1ccc2c(cnn2-c2cc(O)c(F)c(F)c2)c1`
// result 4.52 to 6.00

====

Entries and their IC50 values follow.
target: Recombinant human HSD17B13 enzyme (Homo sapiens (Human), UniProt Q7Z5P4); assay: HSD17b13 NAD(P)H-Glo Biochemical Assay; conditions: 50 uM estradiol, 1 mM NAD+; read-out: HSD17β13 IC50

// query Specify the recorded IC50 for Cc1nn(-c2cc(C(F)(F)F)c(F)c(O)c2F)c2cnc(N3CCC(OCC4CC4)CC3)cc12 [Compound 19.59] , system: Recombinant human HSD17B13 enzyme (Homo sapiens (Human), UniProt Q7Z5P4).
// result 100 to 1000 nM

// query Specify the recorded IC50 for Oc1ccc(-c2ccc3c(cnn3-c3cccc(O)c3F)c2)cc1Cl [Compound 3.01] , system: Recombinant human HSD17B13 enzyme (Homo sapiens (Human), UniProt Q7Z5P4).
// result 100 to 1000 nM

// query Specify the recorded IC50 for Oc1cc(-n2ncc3cc(-c4cncc(Cl)c4)ccc32)cc(F)c1F [Compound 7] , system: Recombinant human HSD17B13 enzyme (Homo sapiens (Human), UniProt Q7Z5P4).
// result 100 to 1000 nM

// query Specify the recorded IC50 for CCN(c1cc2c(C)nn(-c3cc(C(F)(F)F)c(F)c(O)c3F)c2cn1)C1CCOCC1 [Compound 19.54] , system: Recombinant human HSD17B13 enzyme (Homo sapiens (Human), UniProt Q7Z5P4).
// result < 100 nM

// query Specify the recorded IC50 for O=S(=O)(CC1CC1)NC1CN(c2cc3cnn(-c4cc(O)c(F)c(F)c4)c3cc2Cl)C1 [Compound 21.37] , system: Recombinant human HSD17B13 enzyme (Homo sapiens (Human), UniProt Q7Z5P4).
// result 100 to 1000 nM

// query Specify the recorded IC50 for CC(C)c1nn(-c2cc(C(F)(F)F)c(F)c(O)c2F)c2ccc(N(C)C3CCOCC3)cc12 [Compound 19.74] , system: Recombinant human HSD17B13 enzyme (Homo sapiens (Human), UniProt Q7Z5P4).
// result 100 to 1000 nM

// query Specify the recorded IC50 for Oc1cc(-n2ncc3cc(Nc4ccc(O)c(Cl)c4)ccc32)ccc1F [Compound 23] , system: Recombinant human HSD17B13 enzyme (Homo sapiens (Human), UniProt Q7Z5P4).
// result 100 to 1000 nM

// query Specify the recorded IC50 for Cc1nn(-c2cc(C(F)(F)F)c(F)c(O)c2F)c2cnc(N3CCN(S(=O)(=O)c4ccccc4)CC34CC4)cc12 [Compound 19.83] , system: Recombinant human HSD17B13 enzyme (Homo sapiens (Human), UniProt Q7Z5P4).
// result < 100 nM

====

Molecular target: Recombinant human HSD17B13 enzyme (Homo sapiens (Human), UniProt Q7Z5P4)
Test: HSD17b13 NAD(P)H-Glo Biochemical Assay
Conditions: 50 uM estradiol, 1 mM NAD+; read-out: HSD17β13 IC50
Description: Recombinant human HSD17B13 enzyme. Substrate: estradiol (Sigma β-Estradiol E8875), 100 mM in DMSO. […] Assay buffer final concentration: 20 mM Tris pH7.4 with 0.002% Tween-20 and 0.02% BSA. […] Enzymatic activity detected by NAD(P)H-Glo™ Detection System (Promega G9062). […] HSD17b13 enzyme was diluted in 1× assay buffer to the desired enzyme concentration based on the specific activity of the enzyme lot. […] After incubating for 1 hour at RT, luminescence was measured.
Entries and their IC50 values follow.

Take a look at these entries with their results.
CS(=O)(=O)N1CCN(c2cc3cnn(-c4cc(O)c(F)c(C(F)(F)F)c4)c3cc2F)CC1 ... 100 to 1000 nM
CS(=O)(=O)N1CCCN(c2ccc3c(cnn3-c3cc(O)c(F)c(F)c3)c2)CC1 ... 100 to 1000 nM
CNC(=O)c1ccc(-c2ccc3c(cnn3-c3ccc(F)c(O)c3)c2)c(Cl)c1 ... 100 to 1000 nM

// query Look up and state reported IC50 for `Cc1nn(-c2cc(C(F)(F)F)c(F)c(O)c2F)c2cc(F)c(N(C)C3CCOCC3)cc12`
// result < 100 nM

// query Look up and state reported IC50 for `Cc1nn(-c2cc(C(F)(F)F)c(F)c(O)c2F)c2cnc(N3CCN(S(C)(=O)=O)CC34CC4)cc12`
// result < 100 nM

// query Look up and state reported IC50 for `Oc1ccc(F)c(-n2ncc3cc(-c4ccc(O)c(Cl)c4)ccc32)c1`
// result 1000 to 30000 nM

// query Look up and state reported IC50 for `COc1ccccc1-c1ccc2c(cnn2-c2ccc(F)c(O)c2)c1`
// result 100 to 1000 nM

// query Look up and state reported IC50 for `Cc1nn(-c2cc(C(F)(F)F)c(F)c(O)c2F)c2cnc(N3CCN(S(=O)(=O)c4ccccc4)CC3)cc12`
// result < 100 nM

====

biological target: Recombinant human HSD17B13 enzyme (Homo sapiens (Human), UniProt Q7Z5P4); assay: HSD17b13 NAD(P)H-Glo Biochemical Assay; conditions: 50 uM estradiol, 1 mM NAD+; read-out: HSD17β13 IC50
pIC50: −log10 of the molar value.
Entries and their pIC50 values follow.

CS(=O)(=O)N1CCN(c2cc3cnn(-c4ccc(F)c(O)c4F)c3cn2)CC1 [Compound 19.07] ... 6.00 to 7.00
Oc1cc(-n2ncc3cc(-c4ccc(O)c(Cl)c4)ncc32)ccc1F [Compound 4.13] ... 6.00 to 7.00
CS(=O)(=O)N1CCC(CO)(c2ccc3c(cnn3-c3cc(O)c(F)c(F)c3)c2)CC1 [Compound 28.01] ... 4.52 to 6.00

// query Look up and state reported pIC50 for CS(=O)(=O)N1CCN(c2ccc3c(cnn3-c3cc(O)c(F)c(C(F)(F)F)c3)c2)C2(CCC2)C1 [Compound 21.46]
// result 6.00 to 7.00

// query Look up and state reported pIC50 for CS(=O)(=O)N1CCN(c2ccc3c(cnn3-c3cc(O)c(F)c(C(F)(F)F)c3)c2)C2(CC2)C1 [Compound 21.45]
// result 6.00 to 7.00

// query Look up and state reported pIC50 for CN(c1ccc2c(c1)c(C(F)(F)F)nn2-c1cc(C(F)(F)F)c(F)c(O)c1F)C1CCOCC1 [Compound 19.71]
// result 6.00 to 7.00

// query Look up and state reported pIC50 for COc1ccc(-c2ccc3c(cnn3-c3ccc(F)c(O)c3)c2)cc1 [Compound 5.22]
// result 6.00 to 7.00

// query Look up and state reported pIC50 for Cc1nn(-c2cc(C(F)(F)F)c(F)c(O)c2F)c2cnc(N3CCOC4(CCC4)C3)nc12 [Compound 19.82]
// result > 7.00

// query Look up and state reported pIC50 for COc1ccc(-c2ccc3c(cnn3-c3cc(O)c(F)c(F)c3F)c2)cc1Cl [Compound 1.03]
// result 6.00 to 7.00

// query Look up and state reported pIC50 for CN(c1ccc2c(c1)c(C1CC1)nn2-c1cc(C(F)(F)F)c(F)c(O)c1F)C1CCOCC1 [Compound 19.75]
// result 6.00 to 7.00

// query Look up and state reported pIC50 for CS(=O)(=O)Nc1cccc(-c2ccc3c(cnn3-c3ccc(F)c(O)c3)c2)c1 [Compound 4.04]
// result 4.52 to 6.00
